The origin of these recorded values is patent US20050250677A1.

Can you tell me CC50 for the items I'm about to list?
test system: HEL cells; conditions: read-out: CC50 (HEL); HEL cells; anti-VZV table

{"columns": ["Compound", "Readout value"],
 "data": [
  ["CCCCCCCCCC(=O)N1CCN(C(=O)C2NC(=O)C3NC(=O)C(NC(=O)C4NC(=O)C5NC(=O)C(Cc6ccc(c(Cl)c6)Oc6cc4cc(c6O)Oc4ccc(cc4Cl)C3O)NC(=O)C(N)c3ccc(O)c(c3)Oc3cc(O)cc5c3)c3ccc(O)c(c3)-c3c(O)cc(O)cc32)CC1 (stereo not drawn)", "> 50 µM"],
  ["NC1C(=O)NC2Cc3ccc(c(Cl)c3)Oc3cc4cc(c3O)Oc3ccc(cc3Cl)C(O)C3NC(=O)C(NC(=O)C4NC(=O)C(NC2=O)c2cc(O)cc(c2)Oc2cc1ccc2O)c1ccc(O)c(c1)-c1c(O)cc(O)cc1C(C(=O)N1CCN(N=Cc2ccc(Cl)cc2)CC1)NC3=O (stereo not drawn)", "> 50 µM"],
  ["CCCCCCCCCC[N+](C)(C)CCCNCc1c(O)cc2c(c1O)-c1cc(ccc1O)C1NC(=O)C3NC(=O)C4NC(=O)C(Cc5ccc(c(Cl)c5)Oc5cc3cc(c5O)Oc3ccc(cc3Cl)C(O)C(NC1=O)C(=O)NC2C(=O)O)NC(=O)C(N)c1ccc(O)c(c1)Oc1cc(O)cc4c1 (stereo not drawn)", "≥ 200 µM"]
]}

I'm hoping you can list CC50 for every compound here, please.
1. CC(C)CC(C(=O)NC1C(=O)NC(CC(N)=O)C(=O)NC2C(=O)NC3C(=O)NC(C(=O)NC(C(=O)O)c4cc(O)c(CN5CCN(Cc6ccc(-c7ccccc7)cc6)CC5)c(O)c4-c4cc3ccc4O)C(O)c3ccc(cc3)Oc3cc2cc(c3O)Oc2ccc(cc2Cl)C1O)N(C)C(=O)OC(C)(C)C (stereo not drawn)
2. CNC(=O)C1NC(=O)C2NC(=O)C(NC(=O)C3NC(=O)C(CC(N)=O)NC(=O)C(NC(=O)C(CC(C)C)NC)C(O)c4ccc(c(Cl)c4)Oc4cc3cc(c4O)Oc3ccc(cc3)C2O)c2ccc(O)c(c2)-c2c1cc(O)c(CN1CCN(Cc3ccc(-c4ccccc4)cc3)CC1)c2O (stereo not drawn)
3. CCCCCCCCCC[N+](C)(C)CCCNCc1c(O)cc2c(c1O)-c1cc(ccc1O)C1NC(=O)C3NC(=O)C4NC(=O)C(Cc5ccc(c(Cl)c5)Oc5cc3cc(c5O)Oc3ccc(cc3Cl)C(O)C(NC1=O)C(=O)NC2C(=O)NCCO)NC(=O)C(N)c1ccc(O)c(c1)Oc1cc(O)cc4c1 (stereo not drawn)

1: > 50 µM; 2: > 50 µM; 3: > 200 µM

----------
system: HEL cells; settings: read-out: CC50 (HEL); HEL cell proliferation
Please respond with reported CC50 for every item in the list.

Below: 2 compounds and their reported CC50.
{"columns": ["Compound", "Test target", "CC50"],
 "data": [
  ["CCCCc1ccc(CNCc2c(O)cc3c(c2O)-c2cc(ccc2O)C2NC(=O)C4NC(=O)C5NC(=O)C(Cc6ccc(c(Cl)c6)Oc6cc4cc(c6O)Oc4ccc(cc4Cl)C(O)C(NC2=O)C(=O)NC3C(=O)O)NC(=O)C(NC(=O)OC(C)(C)C)c2ccc(O)c(c2)Oc2cc(O)cc5c2)cc1 (stereo not drawn) [Compound 146]", "HEL cells", "> 50 µM"],
  ["CC1(C)SC2C(NC(=O)C3NC(=O)C4NC(=O)C(NC(=O)C5NC(=O)C6NC(=O)C(Cc7ccc(c(Cl)c7)Oc7cc5cc(c7O)Oc5ccc(cc5Cl)C4O)NC(=O)C(N)c4ccc(O)c(c4)Oc4cc(O)cc6c4)c4ccc(O)c(c4)-c4c(O)cc(O)cc43)C(=O)N2C1C(=O)O (stereo not drawn) [Compound 145]", "HEL cells", "> 50 µM"]
]}

We next turn to a different compound, shown below.
Return CC50 (reported value) for this compound: CCCCCCCCCC(=O)N1CCN(C(=O)C2NC(=O)C3NC(=O)C(NC(=O)C4NC(=O)C5NC(=O)C(Cc6ccc(c(Cl)c6)Oc6cc4cc(c6O)Oc4ccc(cc4Cl)C3O)NC(=O)C(N)c3ccc(O)c(c3)Oc3cc(O)cc5c3)c3ccc(O)c(c3)-c3c(O)cc(O)cc32)CC1 (stereo not drawn) [Compound 40]
> 50 µM
